Where do these numbers come from? They come from patent US5674905A.

biological target: CCKB receptor (Mus musculus); construct: The cortex was dissected, weighed and homogenised in 40 ml ice-cold buffer; from tissue; host or cells: cerebral cortex membranes of male CD1 mice (Charles River); test: radioligand binding assay at the CCKB receptor in mouse cortical membranes ([125I]-CCK8S); details: 150 min at 21±3°, read-out: CCKB pKi (converted)
Sequence (P56481 whole entry): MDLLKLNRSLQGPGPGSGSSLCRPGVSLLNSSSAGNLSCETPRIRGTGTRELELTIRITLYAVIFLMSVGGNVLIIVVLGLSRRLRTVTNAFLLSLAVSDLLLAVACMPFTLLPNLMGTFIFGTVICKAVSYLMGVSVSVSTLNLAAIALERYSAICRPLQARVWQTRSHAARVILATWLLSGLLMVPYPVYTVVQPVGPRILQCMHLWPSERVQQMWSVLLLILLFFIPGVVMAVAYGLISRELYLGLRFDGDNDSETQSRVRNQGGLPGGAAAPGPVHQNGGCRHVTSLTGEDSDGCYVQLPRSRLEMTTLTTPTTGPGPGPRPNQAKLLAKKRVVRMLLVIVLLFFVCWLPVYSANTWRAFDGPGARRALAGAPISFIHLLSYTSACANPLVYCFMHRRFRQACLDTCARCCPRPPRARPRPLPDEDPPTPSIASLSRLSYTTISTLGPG
Reported log10 Ki values follow for various molecules
Values below are the log10 of the recorded Ki, with nM as the unit.

Looking up O=C(NCC12CC3CC(CC(C3)C1)C2)C1C2C=CC(c3ccccc32)C1C(=O)N[C@H](Cc1c[nH]c2ccccc12)C(=O)O (single isomer, unassigned) [Example 18] , I found its log10 Ki recorded as 2.90

According to the records, this molecule O=C(O)C1C2CC(c3ccccc32)C1C(=O)NCC12CC3CC(CC(C3)C1)C2 (mixture of isomers) displays log10 Ki of 3.70

The reported log10 Ki of the molecule O=C(NCC12CC3CC(CC(C3)C1)C2)C1C2C=CC(c3ccccc32)C1C(=O)N[C@H](Cc1c[nH]c2ccccc12)C(=O)O (single isomer, unassigned) [Example 15] was 3.20

Value of measured log10 Ki for the entry C[C@H](NC(=O)[C@H]1CCCN1C(=O)C1C2CCC(c3ccccc32)C1C(=O)NCC12CC3CC(CC(C3)C1)C2)C(=O)O (stereo partly shown) [Example 40] : 3.90

Lab note: COC(=O)[C@H](C)NC(=O)C1C2CCC(CC2)C1C(=O)NCC12CC3CC(CC(C3)C1)C2 (mixture of isomers) gave log10 Ki of 3.90

Noted for O=C(O)CNC(=O)[C@H]1CCCN1C(=O)C1C2c3ccccc3C(c3cc4ccccc4cc32)C1C(=O)NCC12CC3CC(CC(C3)C1)C2 (single isomer, unassigned) [Example 37] : its log10 Ki reads 2.20

Lab note: COC(=O)[C@@H]1CCCN1C(=O)C1C2C=CC(c3ccccc32)C1C(=O)NCC12CC3CC(CC(C3)C1)C2 (stereo partly shown) gave log10 Ki of 2.70

---

biological target: CCKB receptor (Mus musculus); construct: The cortex was dissected, weighed and homogenised in 40 ml ice-cold buffer; from tissue; host or cells: cerebral cortex membranes of male CD1 mice (Charles River); assay: radioligand binding assay at the CCKB receptor in mouse cortical membranes ([125I]-CCK8S); conditions: 150 min at 21±3°
# reported CCKB pKi; entries follow

{"columns": ["compound", "assayedSystem", "observable", "dataValue"],
 "data": [
  ["COC(=O)C12CC(c3ccccc31)C(C(=O)NCC13CC4CC(CC(C4)C1)C3)C2C(=O)N[C@@H](Cc1ccccc1)C(=O)Nc1cc(C(=O)O)cc(C(=O)O)c1 (mixture of isomers)", "CCKB receptor (Mus musculus)", "CCKB pKi", 7.6]
]}

Input O=C(NCC12CC3CC(CC(C3)C1)C2)C1C2CC(c3ccccc32)C1C(=O)N1CCC[C@@H]1C(=O)O (mixture of isomers) . Output CCKB pKi: 5.5

# compound COC(=O)C12CC(c3ccccc31)C(C(=O)NCC13CC4CC(CC(C4)C1)C3)C2C(=O)O (mixture of isomers) ; its CCKB pKi = 5.3

For record O=C(NCC12CC3CC(CC(C3)C1)C2)C1C2C=CC(c3ccccc32)C1C(=O)N1CCC[C@H]1C(=O)O (stereo partly drawn) the listed CCKB pKi is 6.2

According to the records, this compound O=C(O)CNC(=O)[C@@H]1CCCN1C(=O)C1C2CCC(c3ccccc32)C1C(=O)NCC12CC3CC(CC(C3)C1)C2 (stereo partly drawn) displays CCKB pKi of 5.6

The compound COC(=O)C12CC(c3ccccc31)C(C(=O)NCC13CC4CC(CC(C4)C1)C3)C2C(=O)N1CCC[C@@H]1C(=O)O (mixture of isomers) showed CCKB pKi equal to 5.1
